Target: T1, human IL-11Rα on transfected cells (human, UniProt Q14626 23-422)
T1 sequence: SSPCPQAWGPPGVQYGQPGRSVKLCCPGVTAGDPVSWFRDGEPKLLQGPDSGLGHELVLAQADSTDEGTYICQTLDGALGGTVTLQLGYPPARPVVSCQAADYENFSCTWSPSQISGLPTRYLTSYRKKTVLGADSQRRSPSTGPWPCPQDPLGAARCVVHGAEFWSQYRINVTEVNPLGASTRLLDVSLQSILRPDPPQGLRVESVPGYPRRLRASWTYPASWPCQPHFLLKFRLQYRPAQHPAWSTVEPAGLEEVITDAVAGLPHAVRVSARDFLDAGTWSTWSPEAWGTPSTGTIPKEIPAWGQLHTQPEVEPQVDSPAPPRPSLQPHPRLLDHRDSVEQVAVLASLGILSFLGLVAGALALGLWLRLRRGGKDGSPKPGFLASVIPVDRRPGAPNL
Assay: cell-based or functional assay
So basically, the class depends on measured Fold increase in potency relative to 8E2, and the ranges are group A = under 2 fold, group B = from 2 fold up to 3 fold, group C = 3 fold and over

hu8E2-TS-4 (antibody, V domains shown) VH: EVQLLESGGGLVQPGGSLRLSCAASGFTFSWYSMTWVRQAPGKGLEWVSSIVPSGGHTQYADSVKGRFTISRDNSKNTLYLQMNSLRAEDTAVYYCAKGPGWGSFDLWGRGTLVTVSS VL: DIQMTQSPSSLSASVGDRVTITCQASQDINNYLNWYQQKPGKAPKLLIYDASNLQTGVPSRFSGSGSGTDFTFTISSLQPEDIATYYCQQHEFQSPTFGPGTKVDIK ... group C
hu8E2-TS-64 (antibody, V domains shown) VH: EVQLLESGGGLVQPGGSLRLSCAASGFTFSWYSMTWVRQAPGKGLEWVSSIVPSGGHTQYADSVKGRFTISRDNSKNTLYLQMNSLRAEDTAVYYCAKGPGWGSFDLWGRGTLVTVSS VL: DIQMTQSPSSLSASVGDRVTITCQASQDINNYLNWYQQKPGKAPKLLIYDASNLQTGVPSRFSGSGSGTDFTFTISSLQPEDIATYYCQQYESQWPQFGPGTKVDIK ... group C
hu8E2-TS-29 (antibody, V domains shown) VH: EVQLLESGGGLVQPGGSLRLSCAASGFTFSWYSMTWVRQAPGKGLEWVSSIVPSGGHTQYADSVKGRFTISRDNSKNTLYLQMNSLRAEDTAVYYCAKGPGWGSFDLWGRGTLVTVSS VL: DIQMTQSPSSLSASVGDRVTITCQASQDINNYLNWYQQKPGKAPKLLIYDASNLQTGVPSRFSGSGSGTDFTFTISSLQPEDIATYYCQQSEEQSPTFGPGTKVDIK ... group B
hu8E2-TS-311 (antibody, V domains shown) VH: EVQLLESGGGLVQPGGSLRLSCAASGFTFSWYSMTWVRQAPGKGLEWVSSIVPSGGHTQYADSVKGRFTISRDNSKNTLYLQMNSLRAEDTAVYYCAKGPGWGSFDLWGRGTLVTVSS VL: DIQMTQSPSSLSASVGDRVTITCQASQDVSQYIEWYQQKPGKAPKLLIYDASNLQTGVPSRFSGSGSGTDFTFTISSLQPEDIATYYCQQYDNLSPTFGPGTKVDIK ... group A

Bin this entry: hu8E2-TS-9 (antibody, V domains shown) VH: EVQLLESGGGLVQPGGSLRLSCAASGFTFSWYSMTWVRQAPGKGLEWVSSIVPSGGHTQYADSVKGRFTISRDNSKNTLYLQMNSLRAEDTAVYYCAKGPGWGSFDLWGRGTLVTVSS VL: DIQMTQSPSSLSASVGDRVTITCQASQDINNYLNWYQQKPGKAPKLLIYDASNLQTGVPSRFSGSGSGTDFTFTISSLQPEDIATYYCQQAEEQSPTFGPGTKVDIK group C

Which bin should I file hu8E2-TS-306 (antibody, V domains shown) VH: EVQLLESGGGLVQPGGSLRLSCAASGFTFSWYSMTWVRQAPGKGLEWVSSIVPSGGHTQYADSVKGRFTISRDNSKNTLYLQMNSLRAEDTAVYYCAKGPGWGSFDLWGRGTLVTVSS VL: DIQMTQSPSSLSASVGDRVTITCQASQDVDKYVEWYQQKPGKAPKLLIYDASNLQTGVPSRFSGSGSGTDFTFTISSLQPEDIATYYCQQYDNLSPTFGPGTKVDIK under? group C

Using the reported Fold increase in potency relative to 8E2, which band applies to hu8E2-TS-322 (antibody, V domains shown) VH: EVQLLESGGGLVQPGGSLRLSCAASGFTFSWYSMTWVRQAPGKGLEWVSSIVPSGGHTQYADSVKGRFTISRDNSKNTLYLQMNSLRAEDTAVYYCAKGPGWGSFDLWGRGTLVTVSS VL: DIQMTQSPSSLSASVGDRVTITCQASQDVHHYMEWYQQKPGKAPKLLIYDASNLQTGVPSRFSGSGSGTDFTFTISSLQPEDIATYYCQQYDNLSPTFGPGTKVDIK ? group A

Returns: class label. Input: hu8E2-TS-17 (antibody, V domains shown) VH: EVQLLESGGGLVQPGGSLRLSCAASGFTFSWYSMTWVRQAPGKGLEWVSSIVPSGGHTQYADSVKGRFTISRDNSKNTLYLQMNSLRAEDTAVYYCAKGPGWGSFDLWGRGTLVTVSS VL: DIQMTQSPSSLSASVGDRVTITCQASQDINNYLNWYQQKPGKAPKLLIYDASNLQTGVPSRFSGSGSGTDFTFTISSLQPEDIATYYCSQFESQSPTFGPGTKVDIK group B

Hi, small favor: classify hu8E2-TS-303 (antibody, V domains shown) VH: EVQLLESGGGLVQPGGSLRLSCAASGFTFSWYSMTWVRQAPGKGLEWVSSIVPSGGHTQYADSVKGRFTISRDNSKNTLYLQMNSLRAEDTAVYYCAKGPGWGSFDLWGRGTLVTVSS VL: DIQMTQSPSSLSASVGDRVTITCQASQDVDYWVEWYQQKPGKAPKLLIYDASNLQTGVPSRFSGSGSGTDFTFTISSLQPEDIATYYCQQYDNLSPTFGPGTKVDIK by its Fold increase in potency relative to 8E2 when you get a moment. group A
